system: 186277-243-T-J2-PDC complex spheroid viability; test: Anticancer human tumor 186277-243-T-J2-PDC patient-derived colon adenocarcinoma cell line growth inhibition [POLQ]; conditions: second compound 1 µM; first compound 0.0316 µM; hits give low values
experimental-readout: viability, T/C (%)
Please reply with the bare figure in % and do not write the unit itself.

C=CCn1c(=O)c2cnc(Nc3ccc(N4CCN(C)CC4)cc3)nc2n1-c1cccc(C(C)(C)O)n1 + COC1C(OC(N)=O)C(O)C(Oc2ccc3c(O)c(NC(=O)c4ccc(O)c(CC=C(C)C)c4)c(=O)oc3c2C)OC1(C)C | 104

Query: Given the compound COc1cc2cc(C(=O)CCC(=O)O)sc2cc1OC + COC1C(OC(N)=O)C(O)C(Oc2ccc3c(O)c(NC(=O)c4ccc(O)c(CC=C(C)C)c4)c(=O)oc3c2C)OC1(C)C , what is its reported viability, T/C?
Result: 111

Query: What do you have for COc1cccc(OCCCN)c1-c1cc(Nc2cnc(C#N)cn2)n[nH]1 + Nc1ccc(C#CCN(C(=O)Cc2ncc(C(F)(F)F)cc2C(F)(F)F)c2ccc(F)cc2)nn1 ?
Result: 9.81

Query: What do you have for COc1cccc2c1C(=O)c1c(O)c3c(c(O)c1C2=O)CC(O)(C(=O)CO)CC3OC1CC(N)C(O)C(C)O1 (stereo not given) + COC1C(OC(N)=O)C(O)C(Oc2ccc3c(O)c(NC(=O)c4ccc(O)c(CC=C(C)C)c4)c(=O)oc3c2C)OC1(C)C ?
Result: 92.1

Query: What do you have for CCc1c2c(nc3ccc(O)cc13)-c1cc3c(c(=O)n1C2)COC(=O)[C@]3(O)CC + Nc1ccc(C#CCN(C(=O)Cc2ncc(C(F)(F)F)cc2C(F)(F)F)c2ccc(F)cc2)nn1 ?
Result: 46.8

Query: What do you have for CC1COCCN1c1cc(C2(O)CC3CCC(C2)O3)c2cnn(-c3ccn[nH]3)c2n1 (stereo not given) + Nc1ccc(C#CCN(C(=O)Cc2ncc(C(F)(F)F)cc2C(F)(F)F)c2ccc(F)cc2)nn1 ?
Result: 109

* * *

test system: 186277-243-T-J2-PDC complex spheroid viability; assay: Anticancer human tumor 186277-243-T-J2-PDC cell line growth inhibition [POLQ]; details: second compound 0.1 µM; first compound 0.1 µM; active = viability on the fitted dose curve at most 10% of control; inactive = the rest;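 also: spheroids exposed to compounds for seven days; 100% = DMSO vehicle control viability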
Answer with one of the outcomes T = active, F = inactive

Example entries begin here.
COc1cccc2c1C(=O)c1c(O)c3c(c(O)c1C2=O)CC(O)(C(=O)CO)CC3OC1CC(N)C(O)C(C)O1 (stereo not drawn) + Cc1cccc(N(C)C(=O)C2C(O)CCN2c2nc(C)cc(C(F)(F)F)c2C#N)c1 | F
COc1cccc2c1C(=O)c1c(O)c3c(c(O)c1C2=O)CC(O)(C(=O)CO)CC3OC1CC(N)C(O)C(C)O1 (stereo not drawn) + COC1C(OC(N)=O)C(O)C(Oc2ccc3c(O)c(NC(=O)c4ccc(O)c(CC=C(C)C)c4)c(=O)oc3c2C)OC1(C)C | F

Query: Called result for COc1cccc(OCCCN)c1-c1cc(Nc2cnc(C#N)cn2)n[nH]1 + Cc1cccc(N(C)C(=O)C2C(O)CCN2c2nc(C)cc(C(F)(F)F)c2C#N)c1
Result: T

* * *

test system: 186277-243-T-J2-PDC complex spheroid viability; test: Anticancer human tumor 186277-243-T-J2-PDC cell line growth inhibition [POLQ]; conditions: second compound 0.316 µM; first compound 0.0316 µM; hits give low values;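 also: spheroids exposed to compounds for seven days; 100% = DMSO vehicle control viability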
experimental-readout: viability, T/C (%)
Please reply with the bare figure in % and do not write the unit itself.

O=C(Nc1ccc(O)c(NS(=O)(=O)c2ccc(F)cc2)c1)c1ccc(-c2ccccc2)cc1 + Nc1ccc(C#CCN(C(=O)Cc2ncc(C(F)(F)F)cc2C(F)(F)F)c2ccc(F)cc2)nn1 | 97.6

Query: Given the molecule COc1cccc2c1C(=O)c1c(O)c3c(c(O)c1C2=O)CC(O)(C(=O)CO)CC3OC1CC(N)C(O)C(C)O1 (stereo not drawn) + COC1C(OC(N)=O)C(O)C(Oc2ccc3c(O)c(NC(=O)c4ccc(O)c(CC=C(C)C)c4)c(=O)oc3c2C)OC1(C)C , what is its reported viability, T/C?
Result: 90.7

Query: What do you have for CCc1cc2c(N3CCc4c(cc(Cn5ccnc5)cc4-c4cn(C)nc4C(F)(F)F)C3=O)cc(C)nc2c(OC)n1 + Nc1ccc(C#CCN(C(=O)Cc2ncc(C(F)(F)F)cc2C(F)(F)F)c2ccc(F)cc2)nn1 ?
Result: 107
